Test system: DU-145 prostate
Test: NCI-60 one-dose screen, 48 h
Conditions: 10 µM unless noted
Compounds without any hit were thinned out: in the full panel of roughly 83,000, 20% have a hit. Activity calls are given as the source filed them. Rule for the calls: active = growth percent below 10; inactive = the rest.
Outcomes: 1 (active), -1 (inactive)

| COMPOUND | ASSAYED TARGET | GROUP LABEL |
| --- | --- | --- |
| COc1ccccc1C(=O)Nc1cccc2c1C(=O)C(=O)C=C2 | DU-145 prostate | -1 |
| O=C(CCn1cc[n+](CC(=O)c2ccc(-c3ccccc3)cc2)c1)Nc1cccc2cccnc12 | DU-145 prostate | -1 |
| CN1CCN(Cc2ccc(NC(=O)c3cncc(C#Cc4cnc5ccc(NCCCO)nn45)c3)cc2C(F)(F)F)CC1 | DU-145 prostate | 1 |
| COc1c(N2CC3CCCNC3C2)c(F)cc2c(=O)c(C(=O)N/N=C/c3c[nH]c4ccccc34)cn(C3CC3)c12 (stereo unspecified) | DU-145 prostate | -1 |
| CCn1c(SCC(=O)Nc2cccc(C(=O)/C=C/c3ccccc3Cl)c2)nc2ccccc2c1=O | DU-145 prostate | -1 |
| C#Cc1nc(/C=C/C(=O)c2nccn2C)cs1 | DU-145 prostate | 1 |
| O=C(CN1CCN(c2cc(=O)n(-c3ccccc3)c3ccccc23)CC1)Nc1ccc(F)cc1 | DU-145 prostate | -1 |
| COc1cccc(/C=C(/C)c2ccc3cccc(OC)c3[o+]2)c1O | DU-145 prostate | -1 |
| O=C1C(c2ccccc2)=C(N2CCc3ccccc32)OC1(Cl)Cl | DU-145 prostate | -1 |
| CC(C)(C)n1nnnc1C(Nc1cccc2c1OCO2)c1cc2cccc3ccc4cccc1c4c32 (stereo unspecified) | DU-145 prostate | -1 |
| C=CCn1c(SCC(=O)Nc2ccc(C(=O)/C=C/c3ccc(Br)cc3)cc2)nnc1-c1c[nH]c2ccccc12 | DU-145 prostate | -1 |
| CCCCCCCn1cc2c(NCCc3ccccc3)ncnc2n1 | DU-145 prostate | -1 |
| COc1ccc([C@@H]2c3[nH]c4ccccc4c3C[C@H]3C(=O)N(C4CCN(CC5CCCCC5)CC4)CC(=O)N23)c(OC)c1 | DU-145 prostate | -1 |
| CC(C)(C)n1cc(-c2ccnc(NCCCNS(=O)(=O)c3cccc(F)c3)n2)c(-c2ccc(Cl)c(O)c2)n1 | DU-145 prostate | -1 |
| CCNC(=O)N1CCc2cc(OC)c(OCCc3ccc(OC)nc3)cc2C1c1ccc(OC)cc1C (stereo unspecified) | DU-145 prostate | -1 |
| Nc1ncc(-c2ccc(NS(=O)(=O)c3ccc(Cl)c(Cl)c3)cc2)[nH]1 | DU-145 prostate | -1 |
| C=CCn1c(SCC(=O)Nc2ccc(C(=O)/C=C/c3cccc([N+](=O)[O-])c3)cc2)nnc1-c1c[nH]c2ccccc12 | DU-145 prostate | -1 |
| NS(=O)(=O)c1ccc(Nc2nc(N/N=C/c3c[nH]c4ccccc34)nc(Nc3ccccc3)n2)cc1 | DU-145 prostate | -1 |
| O=C(O)c1ccc(-n2cc(CNc3cc(F)c(F)c(F)c3)c(-c3ccc(F)cc3)n2)cc1 | DU-145 prostate | -1 |
| CNC(=O)c1cc(Oc2ccc3nc(NC(=O)c4cccc(OC(F)(F)F)c4)sc3c2)ccn1 | DU-145 prostate | -1 |
| O=S(=O)(Nc1ccc(I)cc1Cl)c1ccc(-c2cnc(C3CC3)o2)cc1 | DU-145 prostate | -1 |
| CCc1nn2c(C)cc(C)nc2c1Cc1ccc(/C=C/CN2CCN(CCOCCOCCN3CCN(C/C=C/c4ccc(Cc5c(CC)nn6c(C)cc(C)nc56)cc4)CC3)CC2)cc1 | DU-145 prostate | 1 |
| Cc1cc(C)c(N2C(=O)CC(Nc3ccc(Cl)cc3Cl)C2=O)c(C)c1 (stereo unspecified) | DU-145 prostate | -1 |
| Nc1ncc(-c2ccc3ncnc(Nc4cccc(Cl)c4F)c3c2)cn1 | DU-145 prostate | -1 |
| COc1cc2nc(Cl)nc(Nc3cccc(C4=Nc5c(N)nc(N)nc5NC(c5ccc(Br)cc5)C4)c3)c2cc1OC (stereo unspecified) | DU-145 prostate | -1 |
| NC/C(=C/F)COc1ccc2nc(NCc3cccnc3)oc2c1 | DU-145 prostate | -1 |
| CCOC(=O)c1c(Nc2ccccc2)nn2c(-c3ccc(OC)cc3)ccnc12 | DU-145 prostate | -1 |
| Nc1nc(N)c2c(n1)NC(c1ccc(C(F)(F)F)cc1)CC(c1ccc(Nc3nc(NCCO)nc(N4CCOCC4)n3)cc1)=N2 (stereo unspecified) | DU-145 prostate | -1 |
| O=S(=O)(NCCCNc1nccc(-c2[nH]c(-c3ccccc3)nc2-c2ccc(Cl)c(O)c2)n1)c1ccc(Br)cc1 | DU-145 prostate | -1 |
| CCOC(=O)c1c(Nc2ccccc2)nn2c(-c3ccc(Cl)cc3)ccnc12 | DU-145 prostate | -1 |
| ClC(Cl)c1nc(-c2ccco2)n2nc(-c3ccccc3)cc2n1 | DU-145 prostate | 1 |
| CNC(=O)c1cc(-c2ccc(NC(=S)Nc3cc(C(F)(F)F)cc(C(F)(F)F)c3)cc2)nc2cccnc12 | DU-145 prostate | -1 |
| CC(=O)c1nnn(-c2c(C(=O)n3nc(C)cc3C)sc(=S)n2-c2ccccc2)c1C | DU-145 prostate | -1 |
| CCOP(=O)(OCC)OC[C@]12CCC(C)(C)C=C1[C@H]1CC[C@@H]3[C@@]4(C)CC[C@H](OP(=O)(OCC)OCC)C(C)(C)[C@@H]4CC[C@@]3(C)[C@]1(C)CC2 | DU-145 prostate | 1 |
| CC(C)(C)c1ccc(C(=O)Nc2nc3ccc(O)cc3s2)cc1 | DU-145 prostate | -1 |
| Cc1ccc(S(=O)(=O)NCCNc2nc(Nc3ccc(N4CCN(C)CC4)cc3)nc3ccsc23)cc1 | DU-145 prostate | -1 |

###

System: TK-10 renal
Test: NCI-60 one-dose screen, 48 h
Details: 10 µM unless noted
This is part of a sample that, as a whole, favours compounds with a hit. Of some 83,000 tested, about 20% had one in any assay. The source made the active and inactive calls. Rule for the calls: active = growth percent below 10; inactive = the rest.
Labels: 1 (yes) (active), 0 (no) (inactive)

| COMPOUND | GROUP LABEL |
| --- | --- |
| CC1(C)[C@@H](O)CC[C@]2(C)[C@H]3CC[C@@H]4[C@H]5[C@H](C(=O)/C=C\c6ccncc6)CC[C@]5(O)CC[C@@]4(C)[C@]3(C)CC[C@@H]12 | 0 (no) |
| Brc1ccccc1/C=N/Nc1nc(N/N=C/c2ccccc2Br)nc(N2CCOCC2)n1 | 0 (no) |
| CNC(=O)c1cc(Oc2ccc3nc(NC(=O)c4ccc(N5CCOCC5)c(C(F)(F)F)c4)sc3c2)ccn1 | 0 (no) |
| CCCn1cnc2c(c1=N)C(c1ccc(F)cc1)c1sc3c(CC)cccc3c1O2 (stereo not drawn) | 0 (no) |
| O=S(=O)(NCCNc1nccc(-n2cnc3ccccc32)n1)c1ccc(Cl)cc1 | 0 (no) |
| COc1cc(OC)cc(C(=O)Nc2cccc(C#Cc3cccc4[nH]nc(N)c34)c2)c1 | 0 (no) |
| COc1cc(Nc2c(C#N)cnn3cc(-c4cnn(CC(C)(C)O)c4)cc23)ccc1Cl | 0 (no) |
| COc1cc2c(cc1OC)C(Sc1ccc(C)cc1)c1c(nc(N)c(C#N)c1N)O2 (stereo not drawn) | 1 (yes) |
| COc1ccc([C@@H]2c3[nH]c4ccccc4c3C[C@H]3C(=O)N(C4CCN(CC5CCCCC5)CC4)CC(=O)N23)c(OC)c1 | 0 (no) |
| CN1CCN(Cc2ccc(NC(=O)c3cncc(C#Cc4cnc5ccc(N6CCN(C)CC6)nn45)c3)cc2C(F)(F)F)CC1 | 0 (no) |
| C#C[C@]1(O)CC[C@H]2[C@@H]3CC=C4c5sc(-c6ccc7c(c6)OCO7)nc5CC[C@]4(C)[C@H]3CC[C@@]21C | 0 (no) |
| COc1ccc(C(=O)CSc2nc3c(c(Nc4ccc(S(N)(=O)=O)cc4)n2)CCCC3)cc1 | 0 (no) |
| CN1CCN(c2ccc(/C=N/Nc3nc4ccccc4c(=O)n3-c3ccccc3)cc2)CC1 | 0 (no) |
| NS(=O)(=O)c1ccc(-n2cc(CN3CCCCC3)nn2)cc1 | 0 (no) |
| CNC1CCc2c(sc(NC(=O)c3ccc(C(C)(C)C)cc3)c2C(N)=O)C1 (stereo not drawn) | 0 (no) |
| CCOc1ccc(NC2=C(Cl)C(=O)c3nc(C)ccc3C2=O)cc1 | 0 (no) |
| C=C(C)[C@@H]1CC[C@]2(COC)CC[C@]3(C)[C@H](CC[C@@H]4[C@@]5(C)CCCNC(C)(C)[C@@H]5CC[C@]43C)[C@@H]12 | 0 (no) |
| C=CCn1c(SCC(=O)Nc2ccc(C(=O)/C=C/c3ccc(Br)cc3)cc2)nnc1-c1c[nH]c2ccccc12 | 0 (no) |
| COc1cc2nc(Cl)nc(Nc3cccc(C4=Nc5c(N)nc(N)nc5NC(c5ccccc5)C4)c3)c2cc1OC (stereo not drawn) | 0 (no) |
| Fc1ccc(-c2cc3nc(C(Cl)Cl)nc(-c4ccco4)n3n2)cc1 | 1 (yes) |
| O=C(Nc1ccc(N=Cc2c(O)[nH]c3ccccc23)cc1)Nc1nccs1 | 0 (no) |
| O=S(=O)(NC1c2ccccc2C[C@H]1O)c1ccc(Cl)cc1Cl (stereo partly drawn) | 0 (no) |
| COc1cc(-c2nn(C(C)(C)C)cc2-c2ccnc(NCCCNS(=O)(=O)c3ccc(F)cc3)n2)ccc1Cl | 0 (no) |
| CC(C)(C)c1ccc(C(=O)Nc2sc3c(c2C(N)=O)CC/C(=N\O)C3)cc1 | 0 (no) |
| O=S(=O)(Nc1ccc(I)cc1Cl)c1ccc(-c2cnc(C3CC3)o2)cc1 | 0 (no) |
| CCC1=Cc2cc(OC)ccc2OC12C=Cc1cc(OC)ccc1O2 (stereo not drawn) | 0 (no) |
| CCN1CCN(Cc2cn(-c3ccc(S(N)(=O)=O)cc3)nn2)CC1 | 0 (no) |
| CS(=O)(=O)Nc1cc(-c2ccc3ncc(C#N)c(NCc4ccccc4O)c3c2)cnc1Cl | 1 (yes) |
| Cc1ccc(NC(=O)CNc2cc(C(N)=O)cc(F)c2C)c(Cl)c1 | 0 (no) |
| COc1ccc(/C=N/NC(=O)c2cn(C3CC3)c3c(OC)c(N4CC5CCCNC5C4)c(F)cc3c2=O)cc1 (stereo not drawn) | 0 (no) |
| CN(C)C(=O)c1cc(-c2ccc3ncnc(NCc4ccccc4)c3c2)cnc1N | 0 (no) |
| NC(N)=Nc1ccc(Nc2cccc(Oc3ccc(Cl)c(C(F)(F)F)c3)c2)cn1 | 0 (no) |
| CCOc1ccc(C(=O)Nc2ncc(Cc3ccc(F)cc3)s2)cc1 | 0 (no) |
| COC(=O)c1[nH]nc2c1C1(C(=O)N(C)c3ccccc31)C(C#N)=C(N)O2 (stereo not drawn) | 0 (no) |
| CCCCCCCn1cc2c(N[C@H](C)c3ccccc3)ncnc2n1 | 0 (no) |
| c1cn2c(ccc3nc(-c4cn[nH]c4)c4c(c32)CCCC4)n1 | 0 (no) |
| O=C1[C@@H]2Cc3c([nH]c4ccccc34)[C@H](c3c(Cl)cccc3Cl)N2C(=O)CN1C1CCN(CC2CCCCC2)CC1 | 0 (no) |
| O=C1/C(=C/C=C/c2ccco2)SC(=S)N1C1CCCCC1 | 0 (no) |

Reference for the values: PubChem BioAssay (NCI)
